# testedSystem: apelin receptor (APJ) (Homo sapiens, UniProt P35414)
# Sequence (P35414 whole entry): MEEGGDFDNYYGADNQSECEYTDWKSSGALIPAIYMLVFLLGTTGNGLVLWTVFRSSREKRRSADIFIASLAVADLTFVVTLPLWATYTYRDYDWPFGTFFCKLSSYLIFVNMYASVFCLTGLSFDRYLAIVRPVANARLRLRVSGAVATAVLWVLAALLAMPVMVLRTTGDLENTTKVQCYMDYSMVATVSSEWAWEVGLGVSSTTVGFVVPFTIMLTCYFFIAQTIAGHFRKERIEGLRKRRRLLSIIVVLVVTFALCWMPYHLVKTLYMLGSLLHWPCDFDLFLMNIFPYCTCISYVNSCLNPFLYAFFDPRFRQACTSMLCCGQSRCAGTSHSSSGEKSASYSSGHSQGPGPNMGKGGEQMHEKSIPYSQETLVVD
# methodNotes: in vitro activity as apelin agonists (methods of Giddings et al.; Apelin-13 positive control)
# Format: cell-based
# runParameters: apelin agonist activity, average; read-out: EC50 (nM) Ave
Recorded measurements of EC50, one per entry
Number only, in nM; omit the unit.

Below, each entry is followed by its recorded EC50 result.
smilesRecord	EC50 / nM
CN(C(=O)C[C@H](CCN1CCCC(F)(F)C1)NC(=O)c1nc(C2CCCC2)n(-c2ccccc2C(F)(F)F)n1)c1nccs1	22
O=C(C[C@H](CCN1CCCCC1)NC(=O)c1nc(C2CCCC2)n(-c2ccccc2C(F)(F)F)n1)NC1CCC1	40
CN(C(=O)C[C@H](CCN1CCCC(F)(F)C1)NC(=O)c1cn(-c2ccccc2C(F)(F)F)c(C2CCCC2)n1)c1nccs1	46
O=C(O)C[C@H](CCN1CCCC(F)(F)C1)NC(=O)c1cn(-c2ccccc2C(F)(F)F)c(C2CCCC2)n1	13
CN(C(=O)C[C@H](CCN1CCCC(F)(F)C1)N(C)C(=O)c1nc(C2CCCC2)n(-c2ccccc2C(F)(F)F)n1)c1nccs1	588
O=C(C[C@H](CCN1CCCC(F)(F)C1)NC(=O)c1nc(C2CCCC2)n(-c2cccnc2C(F)(F)F)n1)NC1CCC1	323

Ask: Query: EC50; subject: O=C(O)C[C@H](CCN1CCCC(F)(F)C1)NC(=O)c1nc(-c2ccccc2C(F)(F)F)n(C2CCCC2)n1
Result: 384

Ask: Which EC50 value is on record for O=C(C[C@H](CCN1CCCC(F)(F)C1)NC(=O)c1cn(-c2ccccc2C(F)(F)F)c(C2CCCC2)n1)NC1CCC1 ?
Result: 15

Ask: // returns reported EC50 for input O=C(C[C@H](CCN1CCCCC1)NC(=O)c1nc(-c2ccccc2C(F)(F)F)n(C2CCCC2)n1)NC1CCC1
Result: 310

Ask: For the molecule O=C(C[C@H](CCN1CCCC(F)(F)C1)NC(=O)c1nc(-c2ncccc2C(F)(F)F)n(C2CCCC2)n1)NC1CCC1 , what EC50 is on record?
Result: 7.5

Ask: Entry O=C(C[C@H](CCN1CCCC(F)(F)C1)NC(=O)c1nc(-c2cccnc2C(F)(F)F)n(C2CCCC2)n1)NC1CCC1 : reported EC50 = ?
Result: 2540

Ask: Bench note: what EC50 did COCCN(C)C(=O)[C@H](CCc1ccccc1)NC(=O)c1nc(C2CCCC2)n(-c2ccccc2C(F)(F)F)n1 show?
Result: 754

Ask: // query EC50 value for entry O=C(O)C[C@H](CCN1CCC(F)(F)C1)NC(=O)c1nc(C2CCCC2)n(-c2ccccc2C(F)(F)F)n1
Result: 74

Ask: So what does the record say about EC50 for O=C(C[C@H](CCN1CCCC(F)(F)C1)NC(=O)c1nc(C2CCCC2)n(-c2ccccc2C(F)(F)F)n1)NC1CCC1 ?
Result: 8.3

Ask: Request the reported EC50 associated with O=C(N[C@@H](CCN1CCCC(F)(F)C1)Cc1nnn[nH]1)c1cn(-c2ccccc2C(F)(F)F)c(C2CCCC2)n1
Result: 8

Ask: Name the recorded EC50 for O=C(O)C[C@H](CCN1CCCC(F)(F)C1)NC(=O)c1nc(C2CCCC2)n(-c2ccccc2C(F)(F)F)n1 .
Result: 46

Ask: Please give the measured EC50 for this molecule: O=C(C[C@H](CCN1CCCC(F)(F)C1)NC(=O)c1nc(-c2ccccc2C(F)(F)F)n(C2CCCC2)n1)NC1CCC1
Result: 9

Ask: // EC50 lookup, key: CN(C(=O)C[C@H](CCN1CCCC(F)(F)C1)NC(=O)c1nc(-c2ccccc2C(F)(F)F)n(C2CCCC2)n1)c1nccs1
Result: 48

Ask: Need EC50, item O=C(N[C@@H](CCN1CCCC(F)(F)C1)Cc1nnn[nH]1)c1nc(C2CCCC2)n(-c2ccccc2C(F)(F)F)n1
Result: 9

Ask: Can you share its EC50? I mean this molecule: O=C(O)C[C@H](CCN1CCCC(F)(F)C1)NC(=O)c1nc(-c2ncccc2C(F)(F)F)n(C2CCCC2)n1
Result: 152

====

# methodNotes: Cellular uptake assay: Caco-2 monolayer permeability (A-to-B / B-to-A)
# Format: in vitro ADME
# runParameters: human, Papp (B-to-A)/Papp (A-to-B), Caco-2, 5 μM, pH 7.4
# key: entry, value: efflux ratio at 120 min, 5 μM
Reply with the value as a number alone.

The following compounds have reported results that may help.
smilesRecord	efflux ratio at 120 min, 5 μM
O=C(C[C@H](CCN1CCCC(F)(F)C1)NC(=O)c1cn(-c2ccccc2C(F)(F)F)c(C2CCCC2)n1)NC1CCC1	4
O=C(N[C@@H](CCN1CCCC(F)(F)C1)Cc1nnn[nH]1)c1nc(C2CCCC2)n(-c2ccccc2C(F)(F)F)n1	17
O=C(C[C@H](CCN1CCCC(F)(F)C1)NC(=O)c1nc(-c2ncccc2C(F)(F)F)n(C2CCCC2)n1)NC1CCC1	46

Now for a further compound.
Ask: For the compound O=C(O)C[C@H](CCN1CCCC(F)(F)C1)NC(=O)c1nc(C2CCCC2)n(-c2ccccc2C(F)(F)F)n1 , what efflux ratio at 120 min, 5 μM is on record?
Result: 7
